# experimental_protocol: Volume of distribution in rat at 1 mg/kg, iv
# Type: ADME, organism-based
# Design: dose 1 mg/kg, route intravenous
# test_parameters: in vivo, read-out: Vss
property_name: Vd (L/kg)
One number for each entry, in L/kg.

Lookup result for `CC(C)(C)NCc1ccc2c(c1)CCC[C@H]2NC(=O)C[C@@H]1CCCCN1S(=O)(=O)c1cccc(C(F)(F)F)c1` ; measured Vd: 5.4

====

# study_target: B1 bradykinin receptor (Homo sapiens)
# Sequence (P46663 whole entry): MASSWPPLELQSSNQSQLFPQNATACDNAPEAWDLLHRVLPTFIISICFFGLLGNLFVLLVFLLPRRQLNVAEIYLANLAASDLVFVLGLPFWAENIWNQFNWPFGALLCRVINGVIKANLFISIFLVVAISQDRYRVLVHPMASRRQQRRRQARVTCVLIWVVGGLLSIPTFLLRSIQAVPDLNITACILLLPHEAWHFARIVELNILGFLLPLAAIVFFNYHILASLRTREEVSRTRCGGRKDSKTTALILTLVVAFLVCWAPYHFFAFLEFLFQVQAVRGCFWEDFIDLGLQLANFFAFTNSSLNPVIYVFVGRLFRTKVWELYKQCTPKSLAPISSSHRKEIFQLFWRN
# experimental_protocol: Inhibition of human B1 receptor
property_name: IC50 (nM)
Give bare numbers, in nM.

# chemical_smiles, property_name, endpoint_value
rows = [
    ("CC(C)(C)NCc1ccc2c(c1)OCC[C@H]2NC(=O)C[C@@H]1CCCCN1S(=O)(=O)c1cccc(C(F)(F)F)c1", "IC50", 160),
    ("O=C(C[C@@H]1CCCCN1S(=O)(=O)c1cccc(C(F)(F)F)c1)N[C@@H]1CCCc2cc(CNCC3CC3)ccc21", "IC50", 16),
]

Lookup result for `O=C(C[C@@H]1CCCCN1S(=O)(=O)c1cccc(C(F)(F)F)c1)N[C@@H]1CCCc2cc(CNC3CCC3)ccc21` ; measured IC50: 58

====

# experimental_protocol: Half life in rat at 1 mg/kg, iv
# Format: ADME, organism-based
# Design: dose 1 mg/kg, route intravenous
# test_parameters: in vivo
property_name: half-life (h)
One number for each entry, in h.

Lookup result for `CC(C)(C)NCc1ccc2c(c1)CCC[C@H]2NC(=O)C[C@@H]1CCCCN1S(=O)(=O)c1cccc(C(F)(F)F)c1` ; measured half-life: 2

====

Would you mind telling me the reported IC50 of each entry?
# study_target: B1 bradykinin receptor (Homo sapiens)
# experimental_protocol: Inhibition of human B1 receptor by calcium influx functional assay
One number for each entry, in nM.

Some compounds with known IC50 results, for comparison:
# chemical_smiles, study_target, IC50 (nM)
data = [
    ("CN(C)Cc1ccc2c(c1)CCC[C@H]2NC(=O)C[C@@H]1CCCCN1S(=O)(=O)c1cccc(C(F)(F)F)c1", "B1 bradykinin receptor (Homo sapiens)", 160),
    ("CC(C)(C)NCc1ccc2c(c1)CCC[C@H]2NC(=O)C[C@@H]1CCCCN1S(=O)(=O)c1csc2ccccc12", "B1 bradykinin receptor (Homo sapiens)", 66),
    ("CC(C)(C)NCc1ccc2c(c1)OCC[C@H]2NC(=O)C[C@@H]1CCCN1S(=O)(=O)c1cccc(C(F)(F)F)c1", "B1 bradykinin receptor (Homo sapiens)", 960),
    ("CC(C)(C)NCc1ccc2c(c1)OCC[C@H]2NC(=O)C[C@@H]1CCCCN1S(=O)(=O)c1cccc(C(F)(F)F)c1", "B1 bradykinin receptor (Homo sapiens)", 95),
]

Hey, can you go through the list below and give me IC50 for every item?
1. CC(C)(C)NCc1ccc2c(c1)CCC[C@H]2NC(=O)C[C@@H]1CCCCN1S(=O)(=O)c1cccc2nsnc12
2. Cc1ccc(S(=O)(=O)N2CCCC[C@H]2CC(=O)N[C@@H]2CCCc3cc(CNC(C)(C)C)ccc32)cc1Cl
3. O=C(C[C@@H]1CCCCN1S(=O)(=O)c1cccc(C(F)(F)F)c1)N[C@@H]1CCCc2cc(CNCC3CC3)ccc21
4. CC(C)(C)NCc1ccc2c(c1)CCC[C@H]2NC(=O)C[C@@H]1CCCCN1S(=O)(=O)c1ccccc1
5. CC(C)(C)NCc1ccc2c(c1)CCC[C@H]2NC(=O)C[C@@H]1CCCCN1S(=O)(=O)c1cccc2cnccc12
6. CC(C)CNCc1ccc2c(c1)CCC[C@H]2NC(=O)C[C@@H]1CCCCN1S(=O)(=O)c1cccc(C(F)(F)F)c1
7. O=C(C[C@@H]1CCCCN1S(=O)(=O)c1cccc(C(F)(F)F)c1)N[C@@H]1CCCc2cc(CNC3CC3)ccc21
8. O=C(C[C@@H]1CCCCN1S(=O)(=O)c1cccc(C(F)(F)F)c1)N[C@@H]1CCCc2cc(CNCC(F)(F)F)ccc21

A.
[180, 22, 31, 2400, 4300, 42, 47, 700]
